# method-description: binders of probe aFGF2 on microarray, primary screen, stem cell growth factor project, biochemical, small-molecule microarray, fluorescence 635/667 (AID 1067);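 further: measures binding of biotinylated aFGF2 protein to printed compounds on slides; z-score merges feature fluorescence and signal-to-noise across triplicate slides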
# condition-summary: higher = more signal
measured-parameter: composite z-score
The response must contain the number and no unit.

Solved entries (count: 2):
[
  {
    "molecule": "CCCCO[C@H]1C[C@H]2C(Br)=C[C@@]1(CO)C(=O)[C@]21CO1",
    "meas-value": -0.0785
  },
  {
    "molecule": "C=C[C@H](OC)[C@@H](OC(=O)Nc1ccc(SC)cc1)c1ccc(OC)c(O)c1",
    "meas-value": -0.141
  }
]

Data request: Hello, please tell me recorded composite z-score for this one: CC(C)[Si](OCCCNS(=O)(=O)c1ccc(Br)cc1)(C(C)C)C(C)C
Data returned: -0.0529

Data request: Quickly give me recorded composite z-score for COc1ccc([Si](C)(C)[C@H]2[C@H](CC(=O)N3Cc4ccccc4C[C@H]3CO)O[C@@]3(C(=O)N(Cc4cccc(N5CCOC5=O)c4)c4ccccc43)[C@@H]2C)cc1
Data returned: -0.128

====

# method-description: A549 lung cancer cell viability effects, profiling panel, resazurin fluorescence, 24 h, PK04 Diversity Set (AID 1171); further: test concentration not given here
# condition-summary: higher = more signal, called active from +8 up or from −8 down
Items are presented alongside their recorded z-score.
Form: value (number only, do not type unit).

# example entries with known answers
[
  {
    "compound": "CN1C(=O)C2C=CC(C(O)c3ccc(N(C)C)cc3)N(Nc3ccc([N+](=O)[O-])cc3[N+](=O)[O-])C2C1=O (stereo not drawn)",
    "z-score": 0.0697
  },
  {
    "compound": "[N-]=[N+]=NCc1ccccc1C[C@@]1(C(=O)N2CCOCC2)N=C(c2ccc(OCCCO)cc2)O[C@@H]1c1ccccc1N=[N+]=[N-]",
    "z-score": -1.75
  },
  {
    "compound": "CC[C@@H]1C=C(C(=O)O)[C@H](c2ccccc2)N1S(=O)(=O)c1ccc([N+](=O)[O-])cc1",
    "z-score": 0.0551
  }
]

Data request: Give reported z-score value for COCCOC(=O)N1C(=O)[C@@]2(c3cc(C#CCCO)ccc31)[C@H](c1ccc(O)cc1)N1[C@H](c3ccccc3)[C@H](c3ccccc3)OC(=O)[C@H]1[C@@H]2C(=O)Nc1nc2ccccc2s1
Data returned: -0.192

====

# assayed-target: Pro-neuregulin-1, membrane-bound isoform (Homo sapiens) (UniProt Q02297)
# Sequence (Q02297 whole entry, looked up, canonical isoform): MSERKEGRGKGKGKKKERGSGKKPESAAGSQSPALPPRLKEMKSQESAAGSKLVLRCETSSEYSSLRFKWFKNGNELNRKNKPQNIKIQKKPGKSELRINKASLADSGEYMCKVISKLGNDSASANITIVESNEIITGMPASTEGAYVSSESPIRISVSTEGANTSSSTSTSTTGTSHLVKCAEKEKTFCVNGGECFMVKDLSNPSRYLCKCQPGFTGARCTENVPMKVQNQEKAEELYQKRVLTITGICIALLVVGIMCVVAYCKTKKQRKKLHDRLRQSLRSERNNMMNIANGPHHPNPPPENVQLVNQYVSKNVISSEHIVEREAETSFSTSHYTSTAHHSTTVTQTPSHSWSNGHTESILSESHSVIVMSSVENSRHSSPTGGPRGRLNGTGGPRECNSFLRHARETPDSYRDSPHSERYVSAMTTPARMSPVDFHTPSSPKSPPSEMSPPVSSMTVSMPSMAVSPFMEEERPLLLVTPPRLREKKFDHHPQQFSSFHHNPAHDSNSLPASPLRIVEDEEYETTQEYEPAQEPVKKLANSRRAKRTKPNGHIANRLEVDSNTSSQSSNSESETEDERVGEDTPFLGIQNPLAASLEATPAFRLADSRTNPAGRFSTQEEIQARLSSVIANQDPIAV
# method-description: NRG1 binders on small-molecule microarrays, primary screen, psychiatric disease protein project, biochemical, small-molecule microarray, fluorescence 635/667 (AID 1075);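 further: score combines 667 nm spot fluorescence with signal to noise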
# condition-summary: NRG1 binding, 635 nm fluorescence, higher = more signal
measured-parameter: composite z-score

Consider the following illustrative entries.
[
  {
    "compound-string": "CCCN1C(=O)[C@@]2(CCS(=O)(=O)c3ccccc3)N=C(c3ccc(OCCCO)cc3)O[C@H]2c2ccccc21",
    "composite z-score": 1.72
  },
  {
    "compound-string": "COCCOC(=O)N1C(=O)[C@@]2(c3cc(C#CC4(O)CCCCCC4)ccc31)[C@H](C(=O)N1CCCCCCC1)[C@H]1C(=O)O[C@H](c3ccccc3)[C@H](c3ccccc3)N1[C@@H]2c1ccc(O)cc1",
    "composite z-score": 0.768
  }
]

Data request: Write down the reported composite z-score (system: Pro-neuregulin-1, membrane-bound isoform (Homo sapiens) (UniProt Q02297)) of NC(=O)NCC#Cc1ccc2c(c1)[C@]1(C(=O)N2)[C@H](C(=O)N2CCCCCCC2)[C@H]2C(=O)O[C@H](c3ccccc3)[C@H](c3ccccc3)N2[C@@H]1c1ccccc1OCCO
Data returned: 1.92

====

# method-description: yeast growth modulation, basal conditions, primary screen, YJM789 clinical isolate, OD600, 24 h (AID 1089);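 further: growth of clinical yeast isolate S. cerevisiae YJM 789 seeded 1000 cells per well; test concentration not given here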
# condition-summary: S. cerevisiae YJM789 growth, higher = more signal, called active from +8 up or from −8 down
The threshold is inclusive: z-score of exactly 0.2 counts as 1.0; values below receive 0.0.

Data request: In plain terms: is recorded z-score at least 0.2 for COCCOC(=O)N1C(=O)[C@@]2(c3cc(C#CCCO)ccc31)[C@H](c1ccc(OCCO)cc1)N1[C@H](c3ccccc3)[C@H](c3ccccc3)OC(=O)[C@H]1[C@@H]2C(=O)NC[C@H](O)c1ccccc1 ?
Data returned: 1.0

Data request: Is it the case that C=CCC1=C[C@H]2[C@H]([C@@H]3C=C[C@]2(CC=C)C(=O)[C@]32CO2)[C@@]2(CO2)C1=O has z-score reaching or exceeding 0.2?
Data returned: 1.0

Data request: Assess whether reported z-score for O=C1O[C@H](c2ccccc2)[C@H](c2ccccc2)N2[C@H]1[C@@H](C(=O)NC[C@H](O)c1ccccc1)[C@]1(C(=O)Nc3ccc(C#CC4(O)CCCCCC4)cc31)[C@H]2c1ccc(OCCO)cc1 sits at 0.2 or higher.
Data returned: 1.0

Data request: Record CO[C@@H]1COC(=O)CC=C[C@@H](C)[C@H](OC)COC(=O)CC=C[C@H]1C ; criterion: z-score no lower than 0.2. Met?
Data returned: 0.0

Data request: Quick check: does O=C1OCC=C[C@H]2OC34C=CCN(Cc5ccccc5)C(=O)[C@H]3N(CCCCCO)C(=O)[C@@H]4[C@@H]12 (stereo partly drawn) have z-score greater than or equal to 0.2?
Data returned: 0.0

Data request: Decide: z-score of CC(C)[Si](OCC[C@H]1O[C@]2(C(=O)N(Cc3ccccc3)c3ccccc32)[C@@H](C)[C@@H]1[Si](C)(C)O)(C(C)C)C(C)C >= 0.2?
Data returned: 1.0

====

# assayed-target: Epidermal growth factor receptor (Homo sapiens) (UniProt P00533)
# Sequence (P00533 whole entry, looked up): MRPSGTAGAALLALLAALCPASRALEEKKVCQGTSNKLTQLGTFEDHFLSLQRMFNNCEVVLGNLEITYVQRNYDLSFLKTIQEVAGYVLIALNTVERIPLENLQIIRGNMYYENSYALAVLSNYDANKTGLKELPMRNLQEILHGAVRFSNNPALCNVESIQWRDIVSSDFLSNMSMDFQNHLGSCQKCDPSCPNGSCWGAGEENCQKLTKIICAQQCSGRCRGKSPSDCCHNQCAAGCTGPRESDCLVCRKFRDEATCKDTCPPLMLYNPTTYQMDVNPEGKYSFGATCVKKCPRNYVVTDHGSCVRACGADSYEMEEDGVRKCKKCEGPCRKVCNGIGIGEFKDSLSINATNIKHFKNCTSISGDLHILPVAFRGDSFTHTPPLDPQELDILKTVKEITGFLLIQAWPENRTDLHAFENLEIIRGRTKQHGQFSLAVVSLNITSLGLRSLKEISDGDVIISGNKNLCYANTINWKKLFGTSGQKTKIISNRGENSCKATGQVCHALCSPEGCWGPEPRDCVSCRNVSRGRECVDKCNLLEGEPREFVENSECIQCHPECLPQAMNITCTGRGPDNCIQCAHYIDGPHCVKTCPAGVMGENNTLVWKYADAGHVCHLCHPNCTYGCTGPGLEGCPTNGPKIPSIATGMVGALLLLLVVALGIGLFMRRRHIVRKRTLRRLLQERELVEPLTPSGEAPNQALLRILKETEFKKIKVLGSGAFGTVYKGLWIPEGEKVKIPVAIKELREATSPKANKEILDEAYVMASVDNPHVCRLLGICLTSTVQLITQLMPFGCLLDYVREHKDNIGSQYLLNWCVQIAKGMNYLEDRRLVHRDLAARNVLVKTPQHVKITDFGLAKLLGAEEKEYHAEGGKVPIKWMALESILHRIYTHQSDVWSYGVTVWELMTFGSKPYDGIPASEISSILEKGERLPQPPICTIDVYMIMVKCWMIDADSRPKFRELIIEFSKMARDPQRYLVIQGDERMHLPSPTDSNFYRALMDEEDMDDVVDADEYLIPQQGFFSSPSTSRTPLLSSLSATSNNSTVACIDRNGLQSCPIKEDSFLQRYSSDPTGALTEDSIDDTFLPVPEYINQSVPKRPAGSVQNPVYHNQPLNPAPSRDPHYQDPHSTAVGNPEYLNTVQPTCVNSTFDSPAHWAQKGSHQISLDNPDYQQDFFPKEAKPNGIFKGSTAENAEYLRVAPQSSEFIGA
# method-description: EGFR binders on small-molecule microarrays, primary screen, biochemical, small-molecule microarray, 635 nm fluorescence (AID 1104);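 further: score merges 667 nm emission intensity with spot signal to noise over triplicate slides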
# condition-summary: EGFR binding, higher = more signal
measured-parameter: composite z-score
Hey, just send me the number, nothing else.

# example entries with known answers
[
  {
    "molecule": "COC(=O)C1=C(C)N(Cc2ccccc2)c2c(C(=O)OC)c(C(=O)OC)c(C(=O)OC)c(=O)n2[C@@H]1c1ccccc1",
    "assayed-target": "Epidermal growth factor receptor (Homo sapiens) (UniProt P00533)",
    "meas-value": 0.12
  },
  {
    "molecule": "C=CC[C@]1(C(=O)NCC(O)CO)N=C(c2ccc(OCCCO)cc2)O[C@H]1c1ccccc1 (stereo partly drawn)",
    "assayed-target": "Epidermal growth factor receptor (Homo sapiens) (UniProt P00533)",
    "meas-value": -1.48
  },
  {
    "molecule": "CCOC(=O)[C@H]1C/C=C/C[C@H](C(=O)OCC)C(=O)O[C@H]2[C@@H](OC)O[C@H](CO)[C@@H](OC(=O)Nc3ccc(Br)cc3)[C@@H]2OC1=O",
    "assayed-target": "Epidermal growth factor receptor (Homo sapiens) (UniProt P00533)",
    "meas-value": 0.047
  },
  {
    "molecule": "COCCOC(=O)N1C(=O)[C@@]2(c3cc(C#CCCO)ccc31)[C@H](C(=O)N1CCCCCCC1)[C@H]1C(=O)O[C@H](c3ccccc3)[C@H](c3ccccc3)N1[C@@H]2c1ccc(O)cc1",
    "assayed-target": "Epidermal growth factor receptor (Homo sapiens) (UniProt P00533)",
    "meas-value": 0.292
  },
  {
    "molecule": "Cc1ccc(S[C@]2(C(=O)NCCCN(C)C)CC(=O)N(Cc3ccccc3)[C@@H]2c2ccc(CO)cc2I)cc1",
    "assayed-target": "Epidermal growth factor receptor (Homo sapiens) (UniProt P00533)",
    "meas-value": -1.12
  },
  {
    "molecule": "CCN1C(C)=C(C(=O)OC)[C@@H](c2ccccc2)N2C(=O)[C@@]3(C(=O)OC)O[C@@]12[C@@H]1C(=O)N(c2ccccc2)C(=O)[C@@H]13",
    "assayed-target": "Epidermal growth factor receptor (Homo sapiens) (UniProt P00533)",
    "meas-value": 0.472
  },
  {
    "molecule": "Cc1ccc(N2C(=O)c3ccccc3[C@@H](C(=O)NCc3ccccc3)[C@@H]2c2ccc(CO)cc2)nc1",
    "assayed-target": "Epidermal growth factor receptor (Homo sapiens) (UniProt P00533)",
    "meas-value": -0.446
  },
  {
    "molecule": "C[C@H]1NC(=O)[C@@H](C)NC(=O)[C@@]23C(=O)N[C@@H](Cc4ccccc4)C2[C@H](C)[C@@]2(C)O[C@H]2C3/C=C/C/C=C\\CNC1=O (stereo partly drawn)",
    "assayed-target": "Epidermal growth factor receptor (Homo sapiens) (UniProt P00533)",
    "meas-value": 0.0021
  },
  {
    "molecule": "COCCOC(=O)N1C(=O)[C@@]2(c3cc(C#CC4=CCCCC4)ccc31)[C@H](c1ccc(O)cc1)N1[C@H](c3ccccc3)[C@H](c3ccccc3)OC(=O)[C@H]1[C@@H]2C(=O)N1CCCCCCC1",
    "assayed-target": "Epidermal growth factor receptor (Homo sapiens) (UniProt P00533)",
    "meas-value": 0.405
  },
  {
    "molecule": "O=C1C2C=CC(C(O)Cc3ccccc3)N(Nc3ccc([N+](=O)[O-])cc3)C2C(=O)N1c1ccccc1 (stereo not drawn)",
    "assayed-target": "Epidermal growth factor receptor (Homo sapiens) (UniProt P00533)",
    "meas-value": 0.277
  }
]

Data request: State, in one line, measured composite z-score of C[C@@H]1C=CCC(=O)OC[C@H]2O[C@@H](C=C[C@@H]2O)[C@H](C)C=CCC(=O)OC[C@H]2O[C@H]1C=C[C@@H]2O
Data returned: 1.41

Data request: Input O=C(N1CCCCC1)[C@@]1(CCS(=O)(=O)c2ccccc2)N=C(c2ccc(OCCCO)cc2)O[C@H]1c1ccccc1 , output reported composite z-score.
Data returned: -0.162

Data origin: PubChem BioAssay
